Biological target: E3 (His-APC11/APC2-"APC") (Homo sapiens, UniProt Q9NYG5+Q9UJX6)
Sequence (Q9NYG5 whole entry): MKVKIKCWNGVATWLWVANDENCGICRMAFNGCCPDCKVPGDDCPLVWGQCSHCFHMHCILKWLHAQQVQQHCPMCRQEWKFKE
Sequence (Q9UJX6 whole entry): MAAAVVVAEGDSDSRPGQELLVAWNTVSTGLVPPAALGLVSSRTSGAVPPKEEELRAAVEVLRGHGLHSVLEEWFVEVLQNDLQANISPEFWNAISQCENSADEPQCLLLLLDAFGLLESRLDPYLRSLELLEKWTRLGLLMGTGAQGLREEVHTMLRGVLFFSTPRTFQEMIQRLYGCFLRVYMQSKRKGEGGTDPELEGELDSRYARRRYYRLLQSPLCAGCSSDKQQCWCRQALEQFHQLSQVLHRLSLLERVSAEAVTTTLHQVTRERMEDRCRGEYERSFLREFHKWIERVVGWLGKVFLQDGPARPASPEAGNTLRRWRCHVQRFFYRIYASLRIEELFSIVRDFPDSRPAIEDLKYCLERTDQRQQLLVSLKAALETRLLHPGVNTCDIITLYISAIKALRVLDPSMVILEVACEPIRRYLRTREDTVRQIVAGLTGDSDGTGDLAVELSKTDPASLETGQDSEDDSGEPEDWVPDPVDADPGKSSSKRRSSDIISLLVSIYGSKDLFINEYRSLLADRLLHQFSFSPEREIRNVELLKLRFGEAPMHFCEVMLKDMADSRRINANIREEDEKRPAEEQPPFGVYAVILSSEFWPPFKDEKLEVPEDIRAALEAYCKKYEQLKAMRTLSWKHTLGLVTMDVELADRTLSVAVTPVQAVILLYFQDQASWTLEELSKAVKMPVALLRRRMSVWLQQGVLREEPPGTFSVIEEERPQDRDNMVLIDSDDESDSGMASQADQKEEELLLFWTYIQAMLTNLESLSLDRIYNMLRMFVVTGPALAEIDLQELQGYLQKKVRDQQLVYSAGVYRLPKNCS
Experiment: Plate-based E3 ligase assay (APC FLAG), auto-ubiquitination
Type: biochemical
Set-up: key: “+” indicates that the compound exibits inhibitory activity; “−” indicates that low or no inhibitory activity was observed
Conditions: 8 concentrations tested
endpoint-label: APC Flag 8 pt

Worked examples, 5 compounds total:
CC1CCN(S(=O)(=O)c2cc(Cl)c(Oc3ccc([N+](=O)[O-])cc3Cl)c(Cl)c2)CC1 :: −
O=[N+]([O-])c1ccc(Oc2c(Cl)cc(S(=O)(=O)Nc3cc(F)c(F)cc3F)cc2Cl)c(Cl)c1 :: +
N=C(CCl)NS(=O)(=O)c1cc(Cl)c(Oc2ccc([N+](=O)[O-])cc2)c(Cl)c1 :: −
O=[N+]([O-])c1ccc(Oc2c(Cl)cc(S(=O)(=O)Nc3cc(Cl)cnc3Cl)cc2Cl)c(Cl)c1 :: +
COc1ccc(NS(=O)(=O)c2cc(Cl)c(Oc3ccc([N+](=O)[O-])cc3Cl)c(Cl)c2)cc1 :: −

Query string: Identify APC Flag 8 pt associated with the compound "O=C(NCC1CC1)c1ccccc1NS(=O)(=O)c1cc(Cl)c(Oc2ccc([N+](=O)[O-])cc2Cl)c(Cl)c1"
Result string: +

###

Molecular target: E3 (His-APC11/APC2-"APC") (Homo sapiens, UniProt Q9NYG5+Q9UJX6)
Test: Plate-based E3 ligase assay (APC FLAG), auto-ubiquitination
Type: biochemical
Set-up: key: “+” indicates that the compound exibits inhibitory activity; “−” indicates that low or no inhibitory activity was observed
Details: 8 concentrations tested
endpoint-label: APC Flag 8 pt

COc1ccc(NS(=O)(=O)c2cc(Cl)c(Oc3ccc([N+](=O)[O-])cc3Cl)c(Cl)c2)c(OC)c1OC :: +
O=[N+]([O-])c1ccc(Oc2c(Cl)cc(S(=O)(=O)NC(=S)Nc3ccc(Cl)c(Cl)c3)cc2Cl)c(Cl)c1 :: +
O=[N+]([O-])c1ccc(Oc2c(Cl)cc(S(=O)(=O)Nc3cccc4c3oc3ccccc34)cc2Cl)c(Cl)c1 :: +
Cc1c(Cl)cccc1NS(=O)(=O)c1cc(Cl)c(Oc2ccc([N+](=O)[O-])cc2Cl)c(Cl)c1 :: +
O=[N+]([O-])c1ccc(Oc2c(Cl)cc(S(=O)(=O)NCc3ccncc3)cc2Cl)c(Cl)c1 :: −
O=C(Nc1cc(Cl)ccc1Cl)N1CCC(Oc2ncccn2)CC1 :: −
N=C(Nc1nc2ccccc2[nH]1)NS(=O)(=O)c1cc(Cl)c(Oc2ccc([N+](=O)[O-])cc2Cl)c(Cl)c1 :: +
Cc1ccc(NS(=O)(=O)c2cc(Cl)c(Oc3ccc([N+](=O)[O-])cc3Cl)c(Cl)c2)cc1F :: +
O=[N+]([O-])c1ccc(Oc2c(Cl)cc(S(=O)(=O)NCCc3ccc(Cl)cc3Cl)cc2Cl)c(Cl)c1 :: +
CC1CN(S(=O)(=O)c2cc(Cl)c(Oc3ccc([N+](=O)[O-])cc3Cl)c(Cl)c2)CC(C)O1 (centres unmarked) :: −

Query string: Identify APC Flag 8 pt associated with the molecule "CC(=N)NS(=O)(=O)c1cc(Cl)c(Oc2ccc([N+](=O)[O-])cc2)c(Cl)c1"
Result string: −

Query string: Identify APC Flag 8 pt associated with the molecule "O=[N+]([O-])c1ccc(F)c(NS(=O)(=O)c2ccc(Oc3ncc(C(F)(F)F)cc3Cl)cc2)c1"
Result string: +

Query string: Identify APC Flag 8 pt associated with the molecule "O=S(=O)(Nc1ccc(C(F)(F)F)cc1Cl)c1ccc(Oc2ncc(C(F)(F)F)cc2Cl)cc1"
Result string: +

Query string: Identify APC Flag 8 pt associated with the molecule "O=[N+]([O-])c1ccc(Oc2c(Cl)cc(S(=O)(=O)Nc3ccc(Oc4cc(C(F)(F)F)ccc4Cl)cc3F)cc2Cl)c(Cl)c1"
Result string: +
